Tested on: KRAS PDC multicell spheroid viability;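 further: drug exposure lasted seven days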
METHOD SUMMARY: Anticancer human tumor 521955-158-R6-J3-PDC patient-derived pancreatic carcinoma cell line growth inhibition [KRAS2]
RUN CONDITIONS: second compound 0.0316 µM; first compound 0.00316 µM; hits give low values
Consider the cut-off 90%. If the recorded viability, T/C is strictly smaller, the label is y; if not, the label is n.

Consider the following illustrative entries.
Prompt: Determine whether this compound shows viability, T/C lower than 90% (ties excluded): CC(=O)Nc1cccc(-n2c(=O)n(C3CC3)c(=O)c3c(Nc4ccc(I)cc4F)n(C)c(=O)c(C)c32)c1 + C=CC(=O)N1CCN(c2nc(OCC3CCCN3C)nc3c2CCN(c2cccc4cccc(C)c24)C3)CC1CC#N
Completion: y

Prompt: viability, T/C under 90%? Item: CCN1CCN(Cc2ccc(Nc3ncc(F)c(-c4cc(F)c5nc(C)n(C(C)C)c5c4)n3)nc2)CC1 + C=CC(=O)N1CCN(c2nc(OCC3CCCN3C)nc3c2CCN(c2cccc4cccc(C)c24)C3)CC1CC#N
Completion: n

Prompt: # strict comparison: is reported viability, T/C < 90%? input = CN(C)C/C=C/C(=O)Nc1cc2c(Nc3ccc(F)c(Cl)c3)ncnc2cc1O[C@H]1CCOC1 + C=CC(=O)N1CCN(c2nc(OCC3CCCN3C)nc3c2CCN(c2cccc4cccc(C)c24)C3)CC1CC#N
Completion: y

Prompt: Determine if Cn1ncnc1[C@H]1c2n[nH]c(=O)c3cc(F)cc(c23)N[C@@H]1c1ccc(F)cc1 + C=CC(=O)N1CCN(c2nc(OCC3CCCN3C)nc3c2CCN(c2cccc4cccc(C)c24)C3)CC1CC#N shows viability, T/C strictly lower than 90%.
Completion: n

Consider the record given below.
Prompt: Field: below-cutoff. Rule: recorded viability, T/C strictly less than 90%. Subject: CC(C)n1nc(-c2ccc3oc(N)nc3c2)c2c(N)ncnc21 + C=CC(=O)N1CCN(c2nc(OCC3CCCN3C)nc3c2CCN(c2cccc4cccc(C)c24)C3)CC1CC#N
Completion: y
